# Test system: cyBCMA
# TEST: Kinetics and affinity of cyBCMA/human IgG interactions by SPR (Bio-Rad Proteon XPR36)
# Format: binding, cynomolgus
# CONDITION INFO: 37° C.
MEASURED QUANTITY: ka (1/Ms) cyBCMA @ 37° C. (M⁻¹ s⁻¹)
Field: numeric (M⁻¹ s⁻¹). Do not append units.

Ask | Identify measured ka (1/Ms) cyBCMA @ 37° C. corresponding to L3.PY/L3.KY/H2.QR: anti-BCMA antibody (antibody, V domains shown) VH: EVQLLESGGGLVQPGGSLRLSCAASGFTFGSYAMTWVRQAPGKGLEWVSAISGSGGNTFYADQRKGRFTISRDNSKNTLYLQMNSLRAEDTAVYYCARVSPIASGMDYWGQGTLVTVSS VL: EIVLTQSPGTLSLSPGERATLSCRASQSVSSSYLAWYQQKPGQAPRLLIYGASSRATGIPDRFSGSGSGTDFTLTISRLEPEDFAVYYCKYYPYPPSFTFGQGTKVEIK
Reply | 2.05e+06

Reference source: patent US11814435B2
